# measured_on: ISOC2 Isochorismatase domain-containing protein 2, mitochondrial (Homo sapiens, UniProt Q96AB3)
# Construct: isoTOP-ABPP experiments performed in cell lysates (in vitro); endogenous in cells; host or cells: soluble proteome of human cancer cell lines (MDA-MB-231; Ramos and Jurkat also prepared)
# Sequence (Q96AB3 whole entry, the tested form may be a part): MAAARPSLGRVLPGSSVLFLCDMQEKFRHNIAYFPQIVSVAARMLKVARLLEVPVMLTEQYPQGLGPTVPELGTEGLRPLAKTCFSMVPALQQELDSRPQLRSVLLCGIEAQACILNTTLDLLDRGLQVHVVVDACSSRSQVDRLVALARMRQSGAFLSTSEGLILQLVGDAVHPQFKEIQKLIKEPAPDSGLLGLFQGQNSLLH
# procedure_details: competitive isoTOP-ABPP
# Format: binding
# test_conditions: 50 uM_231_sol_in vitro
One threshold, 1, splits the recorded isoTOP-ABPP ratio, lysine Q96AB3_K178 values: lower ones are T, equal or higher ones are F.

compound: O=C(ON1C(=O)CCC1=O)c1cc(C(F)(F)F)cc(C(F)(F)F)c1
assigned_label: F
--
compound: O=C(Oc1c(F)c(F)c(C(F)(F)F)c(F)c1F)c1cc(C(F)(F)F)cc(C(F)(F)F)c1
assigned_label: F
--
compound: N#Cc1ccc(C(=O)Oc2ccc([N+](=O)[O-])cc2[N+](=O)[O-])cc1 [fragment 44, 2,4-Dinitrophenyl 4-cyanobenzoate]
assigned_label: F
--
compound: O=C(CCc1ccc2c(c1)OCO2)Oc1ccc([N+](=O)[O-])cc1[N+](=O)[O-]
assigned_label: F
--
compound: NC(=O)c1cc(C(F)(F)F)cc(C(F)(F)F)c1 [fragment 51, reference compound]
assigned_label: T
--
compound: O=C(Oc1c(F)c(F)cc(F)c1F)c1cc(C(F)(F)F)cc(C(F)(F)F)c1
assigned_label: T

###

# measured_on: KIAA1967 DBIRD complex subunit KIAA1967 (Homo sapiens, UniProt Q8N163)
# Construct: isoTOP-ABPP experiments performed in cell lysates (in vitro); endogenous in cells; host or cells: soluble proteome of human cancer cell lines (MDA-MB-231; Ramos and Jurkat also prepared)
# Sequence (Q8N163 whole entry, one chain of several): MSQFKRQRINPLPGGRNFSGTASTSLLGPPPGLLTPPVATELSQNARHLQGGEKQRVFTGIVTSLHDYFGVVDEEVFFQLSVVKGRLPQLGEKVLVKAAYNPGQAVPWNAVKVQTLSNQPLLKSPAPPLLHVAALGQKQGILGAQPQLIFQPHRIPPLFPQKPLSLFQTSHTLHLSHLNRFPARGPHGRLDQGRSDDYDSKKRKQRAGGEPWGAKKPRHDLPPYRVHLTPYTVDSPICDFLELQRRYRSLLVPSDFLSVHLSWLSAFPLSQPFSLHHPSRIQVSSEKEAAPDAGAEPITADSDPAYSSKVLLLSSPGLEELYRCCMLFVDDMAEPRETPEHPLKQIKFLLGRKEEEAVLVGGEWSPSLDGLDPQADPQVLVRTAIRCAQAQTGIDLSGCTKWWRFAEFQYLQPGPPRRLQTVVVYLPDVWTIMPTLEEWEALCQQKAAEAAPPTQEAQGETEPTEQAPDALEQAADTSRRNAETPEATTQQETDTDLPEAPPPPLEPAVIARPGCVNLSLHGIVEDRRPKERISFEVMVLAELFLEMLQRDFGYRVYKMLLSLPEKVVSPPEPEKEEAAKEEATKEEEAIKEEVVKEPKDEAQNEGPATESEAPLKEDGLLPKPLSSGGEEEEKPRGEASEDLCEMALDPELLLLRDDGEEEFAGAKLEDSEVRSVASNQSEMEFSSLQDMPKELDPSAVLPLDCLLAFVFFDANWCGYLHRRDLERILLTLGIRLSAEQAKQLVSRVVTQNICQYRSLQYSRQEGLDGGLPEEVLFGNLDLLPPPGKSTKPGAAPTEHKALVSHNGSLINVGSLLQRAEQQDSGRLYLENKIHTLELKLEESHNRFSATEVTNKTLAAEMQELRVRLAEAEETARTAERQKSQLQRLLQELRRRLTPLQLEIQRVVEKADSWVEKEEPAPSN
# procedure_details: competitive isoTOP-ABPP
# Assay type: binding
# test_conditions: 50 uM, in vitro, sol, 231
experimental_endpoint: isoTOP-ABPP ratio (R) at liganded lysine Q8N163_K97

molecule: CC(C)(C)OC(=O)NCCCC(=O)Oc1ccc([N+](=O)[O-])cc1[N+](=O)[O-]
result: 1.0
//
molecule: O=C(Oc1ccc([N+](=O)[O-])cc1[N+](=O)[O-])C1CCN(C(=O)OCc2ccccc2)CC1
result: 1.3
//
molecule: O=C(CCc1coc2cc(F)ccc2c1=O)Oc1ccc([N+](=O)[O-])cc1[N+](=O)[O-]
result: 0.9
//
molecule: O=C(Oc1ccc([N+](=O)[O-])cc1[N+](=O)[O-])c1ccccc1Nc1cccc(C(F)(F)F)c1
result: 1.0
//
molecule: O=C(Oc1ccc([N+](=O)[O-])cc1[N+](=O)[O-])c1ccc2ccccc2n1
result: 0.8
//
molecule: O=C(Oc1ccc([N+](=O)[O-])cc1[N+](=O)[O-])c1ccc(Oc2ccccc2)cc1 [fragment 39, 2,4-Dinitrophenyl 4-phenoxybenzoate]
result: 0.9

###

# measured_on: RINT1 RAD50-interacting protein 1 (Homo sapiens, UniProt Q6NUQ1)
# Construct: isoTOP-ABPP experiments performed in cell lysates (in vitro); endogenous in cells; host or cells: soluble proteome of human cancer cell lines (MDA-MB-231; Ramos and Jurkat also prepared)
# Sequence (Q6NUQ1 whole entry): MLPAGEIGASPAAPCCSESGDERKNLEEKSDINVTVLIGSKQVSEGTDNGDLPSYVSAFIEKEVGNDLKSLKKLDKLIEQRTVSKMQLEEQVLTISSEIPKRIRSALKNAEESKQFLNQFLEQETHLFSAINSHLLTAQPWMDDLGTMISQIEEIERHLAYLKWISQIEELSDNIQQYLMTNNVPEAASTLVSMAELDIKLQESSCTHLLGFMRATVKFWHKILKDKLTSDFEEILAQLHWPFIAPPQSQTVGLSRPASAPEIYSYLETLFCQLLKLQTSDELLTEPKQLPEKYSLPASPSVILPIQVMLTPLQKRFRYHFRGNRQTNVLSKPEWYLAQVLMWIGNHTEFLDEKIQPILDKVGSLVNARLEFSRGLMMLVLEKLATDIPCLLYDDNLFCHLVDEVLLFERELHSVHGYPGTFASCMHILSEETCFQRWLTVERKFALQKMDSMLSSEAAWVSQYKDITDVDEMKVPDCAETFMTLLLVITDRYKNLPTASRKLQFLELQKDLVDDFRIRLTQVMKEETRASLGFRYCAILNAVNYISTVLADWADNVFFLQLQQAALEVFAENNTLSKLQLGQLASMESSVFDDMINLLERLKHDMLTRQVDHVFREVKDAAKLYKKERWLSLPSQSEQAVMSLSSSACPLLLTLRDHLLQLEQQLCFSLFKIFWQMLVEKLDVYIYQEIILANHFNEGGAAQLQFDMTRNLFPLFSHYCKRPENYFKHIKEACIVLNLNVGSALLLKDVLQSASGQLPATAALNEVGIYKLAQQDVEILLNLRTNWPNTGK
# procedure_details: competitive isoTOP-ABPP
# Type: binding
# test_conditions: 50 uM, 231 sol, in vitro
# Description: In vitro covalent fragment treatment for isoTOP-ABPP. All compounds were made up as solutions in DMSO (100×) and were used at a final concentration of 50 μM for activated esters and 100 μM for guanidinylating agents. […] R value calculation and processing. The ratios of light and heavy MS1 peaks for each unique peptide were quantified with a CIMAGE software using default parameters (3 MS1 acquisitions per peak and signal to noise threshold set to 2.5). […]
experimental_endpoint: isoTOP-ABPP reactivity ratio at lysine Q6NUQ1_K771

molecule: Cn1cc(CC(=O)Oc2ccc([N+](=O)[O-])cc2[N+](=O)[O-])c2ccccc21 [fragment 32]
numeric_result: 1.2

molecule: O=C(CCc1cn(-c2ccccc2)nc1-c1ccccc1)Oc1ccc([N+](=O)[O-])cc1[N+](=O)[O-] [fragment 29]
numeric_result: 1.2

molecule: COc1cc(CCC(=O)Oc2ccc([N+](=O)[O-])cc2[N+](=O)[O-])cc(OC)c1OC [fragment 33]
numeric_result: 1.0

molecule: O=C(CCc1coc2cc(F)ccc2c1=O)Oc1c(F)c(F)c(F)c(F)c1F [fragment 26]
numeric_result: 0.9

molecule: CCn1cc(C(=O)Oc2c(F)c(F)c(F)c(F)c2F)c(=O)c2ccc(C)nc21 [fragment 28]
numeric_result: 0.8

molecule: O=C(CN1C(=O)c2ccccc2C1=O)Oc1c(F)c(F)c(F)c(F)c1F [fragment 27]
numeric_result: 1.1

molecule: O=C(Oc1ccc([N+](=O)[O-])cc1[N+](=O)[O-])C(c1ccccc1)c1ccccc1 [fragment 30, 2,4-Dinitrophenyl 2,2-diphenylacetate]
numeric_result: 1.7

molecule: O=C(Oc1c(F)c(F)c(F)c(F)c1F)C1CCN(C(=O)OCc2ccccc2)CC1 [fragment 24]
numeric_result: 1.0

molecule: O=C(Oc1ccc([N+](=O)[O-])cc1[N+](=O)[O-])c1cc(C(F)(F)F)cc(C(F)(F)F)c1 [fragment 31]
numeric_result: 20.0

molecule: O=C(Oc1c(F)c(F)c(F)c(F)c1F)c1ccc2ccccc2n1 [fragment 25]
numeric_result: 1.4

###

# measured_on: HDHD3 Haloacid dehalogenase-like hydrolase domain-containing protein 3 (Homo sapiens)
# Construct: isoTOP-ABPP experiments performed in cell lysates (in vitro); endogenous in cells; host or cells: soluble proteome of human cancer cell lines (MDA-MB-231; Ramos and Jurkat also prepared)
# Sequence (Q9BSH5 1-251): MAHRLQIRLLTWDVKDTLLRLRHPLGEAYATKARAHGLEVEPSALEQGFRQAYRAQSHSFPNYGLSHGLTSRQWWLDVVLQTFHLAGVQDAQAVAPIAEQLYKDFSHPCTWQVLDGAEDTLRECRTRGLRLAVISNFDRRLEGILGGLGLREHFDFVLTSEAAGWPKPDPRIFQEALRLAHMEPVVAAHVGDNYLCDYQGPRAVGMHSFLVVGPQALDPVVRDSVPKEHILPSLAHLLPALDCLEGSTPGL
# procedure_details: competitive isoTOP-ABPP
# Assay type: binding
# test_conditions: 50 uM_231_sol_in vitro
# Method: In vitro covalent fragment treatment for isoTOP-ABPP. All compounds were made up as solutions in DMSO (100×) and were used at a final concentration of 50 μM for activated esters and 100 μM for guanidinylating agents. […] R value calculation and processing. The ratios of light and heavy MS1 peaks for each unique peptide were quantified with a CIMAGE software using default parameters (3 MS1 acquisitions per peak and signal to noise threshold set to 2.5). […]

molecule: O=C(Oc1c(F)c(F)c(C(F)(F)F)c(F)c1F)c1cc(C(F)(F)F)cc(C(F)(F)F)c1
isoTOP-ABPP ratio, lysine Q9BSH5_K15: 0.9

molecule: NC(=O)c1cc(C(F)(F)F)cc(C(F)(F)F)c1 [fragment 51, reference compound]
isoTOP-ABPP ratio, lysine Q9BSH5_K15: 0.8

molecule: N#Cc1ccc(C(=O)Oc2ccc([N+](=O)[O-])cc2[N+](=O)[O-])cc1 [fragment 44, 2,4-Dinitrophenyl 4-cyanobenzoate]
isoTOP-ABPP ratio, lysine Q9BSH5_K15: 20.0

molecule: O=C(ON1C(=O)CCC1=O)c1cc(C(F)(F)F)cc(C(F)(F)F)c1
isoTOP-ABPP ratio, lysine Q9BSH5_K15: 1.4

molecule: O=C(CCc1ccc2c(c1)OCO2)Oc1ccc([N+](=O)[O-])cc1[N+](=O)[O-]
isoTOP-ABPP ratio, lysine Q9BSH5_K15: 3.4

molecule: O=C(Oc1c(F)c(F)cc(F)c1F)c1cc(C(F)(F)F)cc(C(F)(F)F)c1
isoTOP-ABPP ratio, lysine Q9BSH5_K15: 1.0

###

# measured_on: MAP2K3 Dual specificity mitogen-activated protein kinase (Homo sapiens)
# Construct: isoTOP-ABPP experiments performed in cell lysates (in vitro); endogenous in cells; host or cells: soluble proteome of human cancer cell lines (MDA-MB-231; Ramos and Jurkat also prepared)
# Sequence (P46734 1-347): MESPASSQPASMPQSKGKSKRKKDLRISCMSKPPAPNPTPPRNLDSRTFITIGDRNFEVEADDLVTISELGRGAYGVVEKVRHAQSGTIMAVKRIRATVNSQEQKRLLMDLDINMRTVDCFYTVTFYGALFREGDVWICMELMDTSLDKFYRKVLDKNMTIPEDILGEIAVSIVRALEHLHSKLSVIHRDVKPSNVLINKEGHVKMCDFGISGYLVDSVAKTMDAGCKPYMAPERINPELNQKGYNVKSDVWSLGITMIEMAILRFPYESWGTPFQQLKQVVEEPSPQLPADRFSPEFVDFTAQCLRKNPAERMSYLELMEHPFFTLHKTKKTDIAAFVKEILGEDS
# procedure_details: competitive isoTOP-ABPP
# Type: binding
# test_conditions: 50 uM_231_sol_in vitro
One threshold, 1, splits the recorded isoTOP-ABPP ratio, lysine P46734_K93 values: lower ones are MET, equal or higher ones are NOT MET.

compound: O=C(Oc1c(F)c(F)c(C(F)(F)F)c(F)c1F)c1cc(C(F)(F)F)cc(C(F)(F)F)c1
assigned_label: NOT MET

compound: O=C(ON1C(=O)CCC1=O)c1cc(C(F)(F)F)cc(C(F)(F)F)c1
assigned_label: NOT MET

compound: N#Cc1ccc(C(=O)Oc2ccc([N+](=O)[O-])cc2[N+](=O)[O-])cc1 [fragment 44, 2,4-Dinitrophenyl 4-cyanobenzoate]
assigned_label: MET

compound: O=C(CCc1ccc2c(c1)OCO2)Oc1ccc([N+](=O)[O-])cc1[N+](=O)[O-]
assigned_label: MET

compound: O=C(Oc1c(F)c(F)cc(F)c1F)c1cc(C(F)(F)F)cc(C(F)(F)F)c1
assigned_label: NOT MET
